Values were extracted from the supplement of paper PMC10126150.

Tested on: ATP;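 also: ATP exposure 15 min at 22 °C before imaging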
Test: switch fluorescence ratio, 500 uM ATP over buffer (Cy3 cluster intensity, sum of 5 cycles each) (fold (ratio)); higher = stronger signal-on switching upon ATP binding; sequences stand for … in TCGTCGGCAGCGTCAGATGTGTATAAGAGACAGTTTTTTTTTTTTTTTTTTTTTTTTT…TC
Conditions: aptamer strand: ATP DNA aptamer (quencher-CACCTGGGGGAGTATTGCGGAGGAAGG + anchor), 100 nM annealed; ATP concentration: 500 uM
If the reported switch fluorescence ratio equals or exceeds 1, assign YES. If not, assign NO.

Ask: Entry GTTATTAGCG : is its switch fluorescence ratio no less than 1?
Result: NO

Ask: Does the reported switch fluorescence ratio for AAGCAATGGG fall at or above the 1 mark?
Result: YES

----------
System: ATP;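 also: ATP exposure 15 min at 22 °C before imaging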
Test: switch fluorescence ratio, 500 uM ATP over buffer (Cy3 cluster intensity, sum of 5 cycles each) (fold (ratio)); higher = stronger signal-on switching upon ATP binding; sequences stand for … in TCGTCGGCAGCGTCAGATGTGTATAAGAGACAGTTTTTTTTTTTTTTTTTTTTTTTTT…TC
Conditions: aptamer strand: ATP DNA aptamer (quencher-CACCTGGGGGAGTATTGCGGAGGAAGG + anchor), 100 nM annealed; ATP concentration: 500 uM
Exercise: for every item that follows, state its recorded switch fluorescence ratio.
Lab note: write the figure by itself, no unit.

Summary line: TAATGGCTCG , ATP, reported switch fluorescence ratio = 1

# lookup: TAAAGTTCTG on ATP, switch fluorescence ratio = 1.01

Record GATAGTGATA ; system ATP; switch fluorescence ratio = 1.01

Entry TGGTCAAATC : switch fluorescence ratio on ATP = 1

Observed switch fluorescence ratio, ATP, GGTCGATGGT : 0.99

switch fluorescence ratio of AAGACGTCAC , assay on ATP, is 1.91

The reported ATP switch fluorescence ratio of GGGGGTCACG is 0.978

Observed switch fluorescence ratio, ATP, GGGAAGGGTG : 1.08

Summary line: GGGGCTCTGT , ATP, reported switch fluorescence ratio = 1

Bench note, ATP: GGGACTATCA , switch fluorescence ratio reads 0.982

Tested on ATP, the item GCATGTCGTT showed switch fluorescence ratio equal to 1

Entry TAGAAGGGAT , tested on ATP, has a reported switch fluorescence ratio of 0.987

Lab entry: ATP assay, sequence AGAATGGATC , switch fluorescence ratio = 1.01

// switch fluorescence ratio (ATP) for TAGTTTATTT = 1

ATP assay, sequence AGACGTAGTA , recorded switch fluorescence ratio = 1.03

The sequence AAGGGGGGTT , tested on ATP, showed switch fluorescence ratio of 1.01

Item: GAGGGAGTCG | System: ATP | switch fluorescence ratio: 1.01

Observed switch fluorescence ratio, ATP, GGGTAGACTT : 0.996

Item CGTCATGTCT ; assay system ATP; switch fluorescence ratio reported as 1

Log: ATP, sequence CGAATTCAGG , switch fluorescence ratio = 1.01

Assay ATP, sample AATGGGCAGC , switch fluorescence ratio read: 1.02

Entry GACGGGAGCT under ATP had switch fluorescence ratio of 1.06

Recorded switch fluorescence ratio for TTAGATGGTG on ATP was 1.02

Observed switch fluorescence ratio on ATP, entry TACAGGGGGA , equals 1.09

switch fluorescence ratio for ATP with input TGGCTTGGGG equals 1.03

Form field switch fluorescence ratio for item GGGGGTAGCT on ATP: 1

Response field switch fluorescence ratio (ATP) for item AAGATACGAA : 1.04

Known value: ATP switch fluorescence ratio of the sequence AGTTTTTTAG equals 0.98

CGAAACTTGA tested on ATP gave switch fluorescence ratio: 1.02

Tested on ATP: ATCGGTGACA . Observed switch fluorescence ratio: 1

Observed switch fluorescence ratio on ATP, entry GCTTAAGGGC , equals 0.956

GET /values?item= AAAGTGCTCC &system= ATP returns switch fluorescence ratio: 1.1

Bench note, ATP: CGCTTTTGCT , switch fluorescence ratio reads 0.969

Measured on ATP, GGTTAAACAG has a documented switch fluorescence ratio of 0.982

Summary: CATTTTATTT , ATP, switch fluorescence ratio = 0.996

The reported ATP switch fluorescence ratio of CGCGGTGGGC is 1

Note to self: switch fluorescence ratio of TGTTGTCTTT with ATP was 1.03

Value (switch fluorescence ratio, ATP) for record ATCGGGGGCT = 0.98

Noted switch fluorescence ratio for TTTCAATATT , tested on ATP: 1.03

# value of switch fluorescence ratio, ATP, item CGCATATGTA = 1.08

// assay ATP, entry AGTTGAGTTT , switch fluorescence ratio value = 0.992

Fill in: ATP switch fluorescence ratio for ACTCACGGGA = 1.46

I looked up TTTGGTAGCT and its switch fluorescence ratio for ATP was 0.96

Lab entry: ATP assay, sequence AGGCTAGGGG , switch fluorescence ratio = 1.01

Lab note: sequence GGGCAATCGT tested on ATP; recorded switch fluorescence ratio was 1.02

Reported ATP switch fluorescence ratio for item TAGGGGTACT was 1.41

Record TCGAGGATGT has ATP switch fluorescence ratio equal to 0.976

Recorded switch fluorescence ratio for GCGTTTAATA on ATP was 0.997

Note to self: switch fluorescence ratio of TGCAGGGATG with ATP was 0.986

# TATGCCTCTT with ATP: switch fluorescence ratio is 1.01

Field switch fluorescence ratio (ATP), entry CGTGCAGCGG : 1

The value of switch fluorescence ratio recorded for AAGTAATAGG when tested on ATP reads 1.03

The measured switch fluorescence ratio that TTGGGGCTTA showed for ATP is 1.03

Sample TGAGTATAGG , system: ATP. Its switch fluorescence ratio is 1.01

Considering TTTTTTGC , its switch fluorescence ratio with ATP was recorded as 0.955

Reading of switch fluorescence ratio for ACGTTGGCGT with ATP: 0.966

Record GTGTGTGGCT has ATP switch fluorescence ratio equal to 0.976

For TTGACAGGGC on ATP, measured switch fluorescence ratio was 0.952

The sequence AGTCGGGGTA on ATP: switch fluorescence ratio was 1.02

Entry ATATATTTAG , tested on ATP, has a reported switch fluorescence ratio of 0.996

The sequence CGTTGATGGT , tested on ATP, showed switch fluorescence ratio of 0.992

Form field, switch fluorescence ratio with ATP, item CATTGGAGTC : 0.998

# switch fluorescence ratio measured on ATP for item GATGGGGGGT = 1

Entry GGGTTTTTGT : switch fluorescence ratio on ATP = 1.04

Reported switch fluorescence ratio (ATP) for entry TTTTTAAGTT is 1

# ACGGTTCAAT with ATP: switch fluorescence ratio is 1.05

GATTAATTAC on ATP gives switch fluorescence ratio = 1.06

The sequence TTCTAATTTG on ATP: switch fluorescence ratio was 0.968

The observed switch fluorescence ratio for TAGTGGTTAG when tested with ATP stands at 0.991

ATP data for TTATGAGGCT ; its switch fluorescence ratio: 1.01

ATP switch fluorescence ratio of GGCGGAAGTC is 1.01

Form field, switch fluorescence ratio with ATP, item CGAACGGTGG : 0.998

So the reported switch fluorescence ratio for GAAGGTATAC , on ATP, turned out to be 1.66

Per the reported ATP data, TACAATTTGA has switch fluorescence ratio of 0.954

TGACTTTCGC tested on ATP gave switch fluorescence ratio: 1.06

# GCGGGGGCGG with ATP: switch fluorescence ratio is 1.01

switch fluorescence ratio value, target or system ATP, for AACCAGCTGG : 1.04

switch fluorescence ratio value, target or system ATP, for GCCGCTGGGA : 1.01

Entry TTTGCAGAAC , ATP data, switch fluorescence ratio value: 1.2

The reported ATP switch fluorescence ratio of AGTGTCTCCT is 1.02

Case GCATGGGCAG , ATP, switch fluorescence ratio recorded as 0.999

Lab entry: ATP assay, sequence AGCCATAAGG , switch fluorescence ratio = 1.01

Here GATTATATAG was tested on ATP, and its switch fluorescence ratio came to 0.957

Given the sequence TGTGCGTCGA and test system ATP, the measured switch fluorescence ratio is 1

The observed switch fluorescence ratio for TGTAAGCCGG when tested with ATP stands at 1.05

For the sequence GAGGGAGGGA , the measured switch fluorescence ratio on ATP was 1.03
